# ASSAY SUMMARY: Pharmacokinetics, single oral administration of capsules in healthy volunteers (Example 10)
# Format: in vivo, human
# TEST CONTEXT: male, human, blood; single oral dose 2 mg, capsules, 8 volunteers
PROPERTY LABEL: Tmax (h)
Answers are plain numbers, in h.

query: State the recorded Tmax for this entry: Cc1ccc2c(c1)c1c(n2CCc2ccccc2)CCN(C)C1.Cl [A•HCl]
result: 1

* * *

# ASSAY SUMMARY: Pharmacokinetics, single and multiple dosing of capsules in volunteers (Example 11)
# Format: in vivo, human
# TEST CONTEXT: human, in vivo, oral, 20 mg, single dose, 40-mg cohort
PROPERTY LABEL: half-life
Lab note: write values as number then unit, every time.

query: State the recorded half-life for this entry: Cc1ccc2c(c1)c1c(n2CCc2ccccc2)CCN(C)C1.Cl [A•HCl]
result: 10.3 h

* * *

# ASSAY SUMMARY: Pharmacokinetics, single oral administration of capsules in healthy volunteers (Example 10)
# Assay type: in vivo, human
# TEST CONTEXT: male, human, blood; single oral dose 2 mg, capsules, 8 volunteers
PROPERTY LABEL: AUC(0-inf) (ng·h/mL)
Give bare numbers, in ng·h/mL.

query: State the recorded AUC(0-inf) for this entry: Cc1ccc2c(c1)c1c(n2CCc2ccccc2)CCN(C)C1.Cl [A•HCl]
result: 0.0946

* * *

# TARGET DESC: UniProtKB P08908
# Sequence (P08908 1-422): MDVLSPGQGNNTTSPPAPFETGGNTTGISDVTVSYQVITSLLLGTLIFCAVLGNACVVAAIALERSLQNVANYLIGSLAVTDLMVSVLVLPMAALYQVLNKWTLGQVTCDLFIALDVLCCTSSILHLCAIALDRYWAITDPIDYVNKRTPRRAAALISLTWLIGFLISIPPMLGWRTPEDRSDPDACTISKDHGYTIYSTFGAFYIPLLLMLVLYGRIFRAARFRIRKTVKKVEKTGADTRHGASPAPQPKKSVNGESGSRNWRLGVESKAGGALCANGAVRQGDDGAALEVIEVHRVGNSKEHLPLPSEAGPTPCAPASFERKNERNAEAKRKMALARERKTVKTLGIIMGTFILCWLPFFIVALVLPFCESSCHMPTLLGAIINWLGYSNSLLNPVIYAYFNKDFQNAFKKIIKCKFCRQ
PROPERTY LABEL: Ki (nM)
Numbers only, in nM.

query: State the recorded Ki for this entry: Cc1ccc2c(c1)c1c(n2CCc2ccccc2)CCN(C)C1.Cl [A•HCl]
result: 61

* * *

# ASSAY SUMMARY: Pharmacokinetics, single oral administration of capsules in healthy volunteers (Example 10)
# Type: in vivo, human
# TEST CONTEXT: male, human, blood; single oral dose 10 mg, capsules, 8 volunteers
# Source text: Clinical study of the safety of the oral drug of this invention.
PROPERTY LABEL: AUC(0-inf) (ng·h/mL)
Answers are plain numbers, in ng·h/mL.

query: State the recorded AUC(0-inf) for this entry: Cc1ccc2c(c1)c1c(n2CCc2ccccc2)CCN(C)C1.Cl [A•HCl]
result: 0.462

* * *

# ASSAY SUMMARY: Pharmacokinetics, single oral administration of capsules in healthy volunteers (Example 10)
# Type: in vivo, human
# TEST CONTEXT: male, human, blood; single oral dose 4 mg, capsules, 8 volunteers
PROPERTY LABEL: AUC(0-inf) (ng·h/mL)
Answers are plain numbers, in ng·h/mL.

query: State the recorded AUC(0-inf) for this entry: Cc1ccc2c(c1)c1c(n2CCc2ccccc2)CCN(C)C1.Cl [A•HCl]
result: 0.211

* * *

# TARGET DESC: Adrenergic α2B (Homo sapiens, UniProt P18089)
# Sequence (P18089 whole entry): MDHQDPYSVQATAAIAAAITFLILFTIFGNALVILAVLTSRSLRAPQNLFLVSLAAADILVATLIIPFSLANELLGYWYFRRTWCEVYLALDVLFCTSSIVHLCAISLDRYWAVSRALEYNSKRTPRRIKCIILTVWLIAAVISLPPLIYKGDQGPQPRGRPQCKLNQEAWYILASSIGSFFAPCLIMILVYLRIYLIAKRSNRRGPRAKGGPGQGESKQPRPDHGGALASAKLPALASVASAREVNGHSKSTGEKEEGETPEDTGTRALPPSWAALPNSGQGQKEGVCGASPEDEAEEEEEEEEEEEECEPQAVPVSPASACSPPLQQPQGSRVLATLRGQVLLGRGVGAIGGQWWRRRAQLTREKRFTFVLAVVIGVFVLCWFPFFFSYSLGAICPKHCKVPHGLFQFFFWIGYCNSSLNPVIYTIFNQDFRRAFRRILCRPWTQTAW
PROPERTY LABEL: Ki (nM)
Numbers only, in nM.

query: State the recorded Ki for this entry: Cc1ccc2c(c1)c1c(n2CCc2ccccc2)CCN(C)C1.Cl [A•HCl]
result: 0.41

* * *

# ASSAY SUMMARY: Pharmacokinetics, single oral administration of capsules in healthy volunteers (Example 10)
# Assay type: in vivo, human
# TEST CONTEXT: male, human, blood; single oral dose 4 mg, capsules, 8 volunteers
PROPERTY LABEL: Tmax (h)
One number for each entry, in h.

query: State the recorded Tmax for this entry: Cc1ccc2c(c1)c1c(n2CCc2ccccc2)CCN(C)C1.Cl [A•HCl]
result: 1

* * *

# ASSAY SUMMARY: Pharmacokinetics, single and multiple dosing of capsules in volunteers (Example 11)
# Assay type: in vivo, human
# TEST CONTEXT: human, in vivo, oral, 20 mg, single dose, majority of volunteers; read-out: Tmax, variation
PROPERTY LABEL: Tmax

query: State the recorded Tmax for this entry: Cc1ccc2c(c1)c1c(n2CCc2ccccc2)CCN(C)C1.Cl [A•HCl]
result: 0.5 to 4 h

* * *

# TARGET DESC: Serotonin 5-HT7 (Homo sapiens, UniProt P34969)
# Sequence (P34969 whole entry): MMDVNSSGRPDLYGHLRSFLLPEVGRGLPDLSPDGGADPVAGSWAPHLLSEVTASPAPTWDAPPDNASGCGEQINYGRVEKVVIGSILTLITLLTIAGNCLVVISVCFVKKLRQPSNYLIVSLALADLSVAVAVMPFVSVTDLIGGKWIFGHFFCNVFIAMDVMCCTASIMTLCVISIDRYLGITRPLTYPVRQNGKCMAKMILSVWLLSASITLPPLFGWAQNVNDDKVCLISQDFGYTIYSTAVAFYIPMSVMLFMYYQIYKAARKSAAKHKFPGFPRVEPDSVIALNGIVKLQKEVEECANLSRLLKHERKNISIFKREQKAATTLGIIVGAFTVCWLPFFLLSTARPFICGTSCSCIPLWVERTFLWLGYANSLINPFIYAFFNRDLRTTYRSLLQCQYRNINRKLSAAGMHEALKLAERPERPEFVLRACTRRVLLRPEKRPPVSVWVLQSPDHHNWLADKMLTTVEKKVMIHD
PROPERTY LABEL: pKi
Answers are plain numbers, as −log10 of the molar value.

query: State the recorded pKi for this entry: Cc1ccc2c(c1)c1c(n2CCc2ccccc2)CCN(C)C1.Cl [A•HCl]
result: 9.82

* * *

# ASSAY SUMMARY: Pharmacokinetics, single oral administration of capsules in healthy volunteers (Example 10)
# Format: in vivo, human
# TEST CONTEXT: male, human, blood; single oral dose 20 mg, capsules, 8 volunteers
PROPERTY LABEL: Tmax
Lab note: write values as number then unit, every time.

query: State the recorded Tmax for this entry: Cc1ccc2c(c1)c1c(n2CCc2ccccc2)CCN(C)C1.Cl [A•HCl]
result: 1 h

* * *

# ASSAY SUMMARY: Pharmacokinetics, single oral administration of capsules in healthy volunteers (Example 10)
# Assay type: in vivo, human
# TEST CONTEXT: male, human, blood; single oral dose 2 mg, capsules, average of 8 volunteers; read-out: Cmax
# Text: Clinical study of the safety of the oral drug of this invention.
PROPERTY LABEL: Cmax (pg/mL)
Answers are plain numbers, in pg/mL.

query: State the recorded Cmax for this entry: Cc1ccc2c(c1)c1c(n2CCc2ccccc2)CCN(C)C1.Cl [A•HCl]
result: 2.1
